- Tested Target: Biotin Protein Ligase (MtBPL) (Mycobacterium tuberculosis, UniProt I6YFP0)
- Construct: 266 amino acids, hexahistidine tag at N-terminus
- Sequence (I6YFP0 whole entry, looked up): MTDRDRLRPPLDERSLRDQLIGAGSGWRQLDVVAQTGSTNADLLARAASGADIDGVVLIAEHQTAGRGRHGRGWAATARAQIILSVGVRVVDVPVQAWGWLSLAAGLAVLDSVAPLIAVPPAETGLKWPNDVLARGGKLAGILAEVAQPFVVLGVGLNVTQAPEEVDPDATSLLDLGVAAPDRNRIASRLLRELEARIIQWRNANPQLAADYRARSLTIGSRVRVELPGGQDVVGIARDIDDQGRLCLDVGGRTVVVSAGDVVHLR
- Protocol Notes: ITC (VP-ITC, […]°C)
Readout Label: pKd
Scale: pKd equals -log10([C]), with [C] in mol/L.

For the compound shown here, `Nc1ncnc2c1ncn2[C@@H]1O[C@H](COP(=O)(O)OC(=O)CCCC[C@@H]2SC[C@@H]3NC(=O)N[C@@H]32)[C@@H](O)[C@H]1O` , give the reported pKd. 5.87
